Overview of recorded inhibition at 3 µM for various compounds
- SUBJECT_OF_TEST: human GCN2 full-length protein (Homo sapiens)
- Construct: purchased Carna Biosciences, Inc
- Sequence (Q9P2K8 whole entry): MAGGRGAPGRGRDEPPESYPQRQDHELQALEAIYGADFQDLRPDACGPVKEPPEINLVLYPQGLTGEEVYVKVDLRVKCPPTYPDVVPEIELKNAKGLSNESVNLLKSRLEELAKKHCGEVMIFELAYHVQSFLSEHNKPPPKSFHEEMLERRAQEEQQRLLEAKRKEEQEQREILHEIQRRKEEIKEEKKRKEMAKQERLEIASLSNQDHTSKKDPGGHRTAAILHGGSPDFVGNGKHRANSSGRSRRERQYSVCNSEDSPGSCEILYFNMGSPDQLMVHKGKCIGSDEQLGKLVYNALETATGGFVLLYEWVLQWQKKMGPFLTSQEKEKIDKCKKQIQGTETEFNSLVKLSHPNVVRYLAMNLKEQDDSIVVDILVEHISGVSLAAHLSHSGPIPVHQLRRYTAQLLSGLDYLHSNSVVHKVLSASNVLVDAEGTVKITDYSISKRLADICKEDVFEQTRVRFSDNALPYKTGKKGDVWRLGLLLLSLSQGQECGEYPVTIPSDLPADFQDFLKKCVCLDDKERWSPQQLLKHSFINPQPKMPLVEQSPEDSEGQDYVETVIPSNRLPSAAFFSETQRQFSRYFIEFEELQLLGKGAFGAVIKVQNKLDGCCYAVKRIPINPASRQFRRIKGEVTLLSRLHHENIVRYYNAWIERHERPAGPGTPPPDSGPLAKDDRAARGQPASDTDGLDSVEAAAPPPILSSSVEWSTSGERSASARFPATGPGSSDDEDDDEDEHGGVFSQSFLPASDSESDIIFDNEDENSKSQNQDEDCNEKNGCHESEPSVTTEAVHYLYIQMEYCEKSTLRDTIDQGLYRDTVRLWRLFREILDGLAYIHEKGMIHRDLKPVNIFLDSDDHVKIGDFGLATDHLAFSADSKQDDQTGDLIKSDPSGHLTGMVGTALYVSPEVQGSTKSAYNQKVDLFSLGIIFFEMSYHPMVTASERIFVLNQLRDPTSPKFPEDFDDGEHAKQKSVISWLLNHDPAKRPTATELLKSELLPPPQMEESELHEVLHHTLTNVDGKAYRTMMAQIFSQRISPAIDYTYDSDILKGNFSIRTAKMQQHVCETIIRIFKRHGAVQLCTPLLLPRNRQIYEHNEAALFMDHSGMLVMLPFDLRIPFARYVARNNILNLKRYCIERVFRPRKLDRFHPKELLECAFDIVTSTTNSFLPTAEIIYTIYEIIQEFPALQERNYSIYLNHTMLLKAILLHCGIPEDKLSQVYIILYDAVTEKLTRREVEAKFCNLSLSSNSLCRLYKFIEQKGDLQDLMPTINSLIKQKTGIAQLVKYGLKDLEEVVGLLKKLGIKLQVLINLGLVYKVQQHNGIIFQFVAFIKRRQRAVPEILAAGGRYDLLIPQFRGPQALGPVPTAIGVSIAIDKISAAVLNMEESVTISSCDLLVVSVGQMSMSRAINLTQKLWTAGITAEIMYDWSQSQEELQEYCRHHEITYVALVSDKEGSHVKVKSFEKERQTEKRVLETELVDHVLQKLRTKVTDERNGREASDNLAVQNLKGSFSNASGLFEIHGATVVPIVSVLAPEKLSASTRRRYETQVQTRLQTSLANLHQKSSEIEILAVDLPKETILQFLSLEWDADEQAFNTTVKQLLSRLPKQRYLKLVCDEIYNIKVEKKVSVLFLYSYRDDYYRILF
- METHOD_SUMMARY: GCN2 enzyme inhibition assay (LanthaScreen TR-FRET)
- Assay type: biochemical
- CONDITION_DETAILS: GCN2 enzyme inhibitory activity at compound concentration of 3 μM; Table 3-1; read-out: inhibitory rate
Where a name gives a salt, the structure may show the parent alone.
Record the value in %, omitting the unit from your answer.

Input: Supply reported inhibition at 3 µM belonging to this compound: Cc1ccc(C)c(S(=O)(=O)Nc2ccc(F)c(C#Cc3cnc4[nH]ncc4c3)c2F)c1 [Example 112, TFA Salt]
Output: 99

Input: Give the reported value of inhibition at 3 µM for this record: Cc1ncc(Cl)cc1S(=O)(=O)Nc1ccc(F)c(C#Cc2cnc3[nH]ncc3c2)c1F
Output: 100
